Data credit: patent US11427590B2

Assay: Phase I metabolic stability in mouse liver microsomes
Type: in vitro ADME
Details: 37° C.
Parameter Measured: Mouse Liver Microsome (+) NADPH % Remaining at 60 min (%)

Would you please look over these solved cases?
Compound | Reported Value
COc1ccc(-c2c(C)nc3c(N4CC[C@@H](NS(=O)(=O)c5ccc(C)cc5)C4)cc(C)nn23)cc1OC [compound 22] | 2
COc1ccc(-c2c(C)nc3c(N4CC[C@@H](NS(=O)(=O)c5ccc(C(F)(F)F)cc5)C4)cc(C)nn23)cc1OC [compound 30] | 15

(I) CC(=O)N[C@@H]1CCN(c2cc(C)nn3c(-c4cccs4)c(C)nc23)C1 [compound 13]
(II) CC(=O)N[C@@H]1CCN(c2cc(C)nn3c(-c4ccc(OC(F)(F)F)cc4)c(C)nc23)C1 [compound 17]
For the pair I and II , which entry has the numerically smaller recorded Mouse Liver Microsome (+) NADPH % Remaining at 60 min? Please reply using the label of the selected record.
I
(I: 28%, II: 72%)

---

Experiment: Phase I metabolic stability in mouse liver microsomes
Format: in vitro ADME
Settings: 37° C.
Parameter Measured: Mouse Liver Microsome (+) NADPH % Remaining at 60 min (%)

Molecule | Reported Value
COc1ccc(-c2c(C)nc3c(N4CC[C@@H](NS(=O)(=O)c5ccccc5)C4)cc(C)nn23)cc1OC [compound 28] | 20
COc1ccc(-c2c(-c3ccc(C)cc3)nc3c(N4CC[C@@H](NC(C)=O)C4)cc(C)nn23)cc1OC [compound 62] | 53
COc1ccc(-c2c(C)nc3c(N4CC[C@@H](NS(=O)(=O)c5ccc(Cl)cc5)C4)cc(C)nn23)cc1OC [compound 29] | 7
COc1ccc(-c2c(C)nc3c(N4CC[C@@H](NC(=O)C(F)(F)c5ccccc5)C4)cc(C)nn23)cc1OC [compound 37] | 6
COc1ccc(-c2c(C)nc3c(N4CC[C@@H](NC(=O)C(F)(F)F)C4)cc(C)nn23)cc1OC [compound 35] | 117

(a) COc1ccc(-c2c(C)nc3c(N4CC[C@@H](NS(=O)(=O)c5ccc(C(C)=O)cc5)C4)cc(C)nn23)cc1OC [compound 23]
(b) COc1ccc(-c2c(C)nc3c(N4CCCC4)cc(C)nn23)cc1OC [compound 44]
Which one would you say has the larger Mouse Liver Microsome (+) NADPH % Remaining at 60 min value: a , or b ? // respond with label for picked entry
a

---

Assay: Phase I metabolic stability in human liver microsomes
Type: in vitro ADME
Conditions: 37° C.
Parameter Measured: Human Liver Microsome (+) NADPH Remaining at 60 min (%)

Structure String | Reported Value
COc1ccc(-c2c(C)nc3c(N4CC[C@@H](NC(=O)C(F)(F)F)C4)cc(C)nn23)cc1OC | 113

(P) COc1ccc(-c2c(C)nc3c(N4CCCC4)cc(C)nn23)cc1OC
(Q) COc1ccc(-c2c(C)nc3c(N4CC[C@@H](NC(=O)C(F)(F)c5ccccc5)C4)cc(C)nn23)cc1OC
Kindly identify the item with the lower Human Liver Microsome (+) NADPH Remaining at 60 min figure among these two: P and Q Identify your pick by its label.
Q

(a) COc1ccc(-c2c(C)nc3c(N4CC[C@@H](NS(=O)(=O)c5ccccc5)C4)cc(C)nn23)cc1OC
(b) COc1ccc(-c2c(-c3ccc(C)cc3)nc3c(N4CC[C@@H](NC(C)=O)C4)cc(C)nn23)cc1OC
(c) COc1ccc(-c2c(C)nc3c(N4CC[C@@H](NS(=O)(=O)c5ccc(C(C)=O)cc5)C4)cc(C)nn23)cc1OC
Descending sort on Human Liver Microsome (+) NADPH Remaining at 60 min required. Use the labels to give the requested order.
a, b, c

---

Molecular target: UniProt:Q9NY59
Sequence (Q9NY59 whole entry): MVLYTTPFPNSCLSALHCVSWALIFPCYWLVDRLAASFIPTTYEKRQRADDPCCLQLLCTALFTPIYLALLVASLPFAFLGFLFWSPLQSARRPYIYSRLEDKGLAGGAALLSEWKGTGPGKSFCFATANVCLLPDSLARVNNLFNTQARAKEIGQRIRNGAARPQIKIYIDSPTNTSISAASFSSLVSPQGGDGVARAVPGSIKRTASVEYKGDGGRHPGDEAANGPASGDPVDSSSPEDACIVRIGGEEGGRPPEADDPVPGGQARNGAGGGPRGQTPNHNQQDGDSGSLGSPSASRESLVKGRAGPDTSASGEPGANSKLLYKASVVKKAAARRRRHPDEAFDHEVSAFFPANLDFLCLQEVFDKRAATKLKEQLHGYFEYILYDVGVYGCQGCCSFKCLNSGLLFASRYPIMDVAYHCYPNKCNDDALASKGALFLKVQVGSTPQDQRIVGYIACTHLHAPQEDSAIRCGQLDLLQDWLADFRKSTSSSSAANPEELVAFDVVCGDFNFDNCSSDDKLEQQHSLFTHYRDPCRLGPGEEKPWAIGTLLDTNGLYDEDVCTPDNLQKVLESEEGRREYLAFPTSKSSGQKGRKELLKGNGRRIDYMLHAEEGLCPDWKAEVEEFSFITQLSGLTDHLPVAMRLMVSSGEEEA
Test: Human nSMase2 fluorescence-based activity assay
Type: biochemical
Details: inhibition of nSMase2; read-out: IC50
Entries and their IC50

Worked examples follow.
Structure String | IC50
CC(=O)N[C@@H]1CCN(c2cc(C)nn3c(C)c(C)nc23)C1 | > 1 µM
CC(=O)N[C@@H]1CCN(c2cc(C)nn3c(-c4ccc5c(c4)OCO5)c(C)nc23)C1 | ≤ 1 µM
CC(=O)N[C@@H]1CCN(c2ccnn3cc(C)nc23)C1 | > 10 µM
CC(=O)Nc1cccc(-c2c(C)nc3c(N4CC[C@@H](NC(C)=O)C4)cc(C)nn23)c1 | > 1 µM
CC(=O)Nc1cccc(-c2c(C)nc3c(N4CC[C@@H](NC(C)=O)C4)cc(Cl)nn23)c1 | > 100 µM
CC(=O)N[C@@H]1CCN(c2cc(C)nn3c(I)c(C)nc23)C1 | > 10 µM

Entry COc1ccc(-c2c(C)nc3c(N4CC[C@@H](NC(C)=O)C4)cc(Cl)nn23)cc1 ; assay system UniProt:Q9NY59; IC50 recorded at > 100 µM

Per the reported UniProt:Q9NY59 data, COc1cccc(-c2c(C)nc3c(N4CC[C@@H](NC(C)=O)C4)cc(C)nn23)c1 has IC50 of > 1 µM

Note to self: IC50 of COc1cc(N2CC[C@@H](NC(C)=O)C2)c2nc(C)c(-c3ccc(OC)c(OC)c3)n2n1 with UniProt:Q9NY59 was > 1 µM

Summary: CC(=O)N[C@@H]1CCN(c2cc(Cl)nn3c(-c4ccc(F)cc4)c(C)nc23)C1 , UniProt:Q9NY59, IC50 = > 100 µM

Value (IC50, UniProt:Q9NY59) for record CC(=O)N[C@@H]1CCN(c2cc(C)nn3c(-c4ccc(O)cc4)c(C)nc23)C1 = ≤ 1 µM

Item CC(=O)N[C@@H]1CCN(c2cc(Cl)nn3cc(C)nc23)C1 was tested on UniProt:Q9NY59; the reported IC50 is > 100 µM

Observed IC50, UniProt:Q9NY59, COc1cccc(-c2c(C)nc3c(N4CC[C@@H](NC(C)=O)C4)cc(Cl)nn23)c1 : > 100 µM

CC(=O)N[C@@H]1CCN(c2cc(C)nn3c(-c4cccc(S(C)(=O)=O)c4)c(C)nc23)C1 on UniProt:Q9NY59 gives IC50 = > 1 µM

---

Assay: Phase I metabolic stability in human liver microsomes
Assay type: in vitro ADME
Conditions: 37° C.
Parameter Measured: Human Liver Microsome (+) NADPH Remaining at 60 min (%)

Please review the entries below; each comes with its answer.
Structure String | Reported Value
COc1ccc(-c2c(C)nc3c(N4CC[C@@H](NS(=O)(=O)c5ccc(Cl)cc5)C4)cc(C)nn23)cc1OC | 32
COc1ccc(-c2c(C)nc3c(N4CC[C@@H](NS(=O)(=O)c5ccc(C)cc5)C4)cc(C)nn23)cc1OC | 29

(P) COc1ccc(-c2c(C)nc3c(N4CC[C@@H](NS(=O)(=O)c5ccc(C(F)(F)F)cc5)C4)cc(C)nn23)cc1OC
(Q) CC(=O)N[C@@H]1CCN(c2cc(C)nn3c(-c4ccc(OC(F)(F)F)cc4)c(C)nc23)C1
For the two items P and Q , which reports the higher Human Liver Microsome (+) NADPH Remaining at 60 min value? Mark your selection by writing its label.
Q
